// data source = patent US20260242365A1

# testedTarget: DPP1 in HL-60 cells (Homo sapiens, UniProt P53634)
# Construct: HL-60 cells (ATCC
# Sequence (P53634 25-463): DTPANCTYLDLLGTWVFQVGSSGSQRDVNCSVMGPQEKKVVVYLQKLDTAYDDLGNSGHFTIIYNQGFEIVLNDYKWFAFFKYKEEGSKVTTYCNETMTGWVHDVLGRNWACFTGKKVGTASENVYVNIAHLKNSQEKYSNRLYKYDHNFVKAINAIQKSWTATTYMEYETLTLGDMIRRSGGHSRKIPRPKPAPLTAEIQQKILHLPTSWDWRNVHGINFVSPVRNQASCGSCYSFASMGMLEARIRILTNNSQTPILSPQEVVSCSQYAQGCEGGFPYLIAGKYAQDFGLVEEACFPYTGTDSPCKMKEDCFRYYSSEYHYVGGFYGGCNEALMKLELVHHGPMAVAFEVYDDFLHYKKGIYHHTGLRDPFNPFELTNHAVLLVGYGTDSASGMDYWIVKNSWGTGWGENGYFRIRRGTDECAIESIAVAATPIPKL
# testMethodNotes: DPP1 Cell IC50 Assay
# experimentalContext: H-Gly-Phe-AFC substrate
pIC50: −log10 of the molar value.
measurementLabel: pIC50

I = COC1CNC[C@@H](C(=O)N[C@H](C#N)Cc2ccc(-c3ccc4oc(=O)n(C)c4c3)cc2)OC1 (single isomer, unassigned) [INSM-203]
II = Cn1c(=O)oc2ccc(-c3ccc(C[C@@H](C#N)NC(=O)[C@@H]4CNC[C@H](O)CO4)cc3)cc21 (single isomer, unassigned)
III = COC1CNC[C@@H](C(=O)N[C@H](C#N)Cc2ccc(-c3ccc4oc(=O)n(C)c4c3)cc2)OC1 (mixture of isomers) [INSM-202]
input: Endpoint returns the given molecules ordered by ascending pIC50. Form field (ranking): labels in requested order.
output: II, III, I
(II: 7.87, III: 8.96, I: 9.22)

---

# testedTarget: human DPP1 (Homo sapiens)
# Construct: was first proteolytically processed into its mature form using recombinant human cathepsin L
# testMethodNotes: Human DPP1 Enzyme IC50 Assay
# experimentalContext: activated human DPP1 enzyme, H-Gly-Arg-AMC substrate
pIC50: −log10 of the molar value.
measurementLabel: pIC50

P = COC1CNC[C@@H](C(=O)N[C@H](C#N)Cc2ccc(-c3ccc4oc(=O)n(C)c4c3)cc2)OC1 (single isomer, unassigned) [INSM-203]
Q = Cn1c(=O)oc2ccc(-c3ccc(C[C@@H](C#N)NC(=O)[C@@H]4CNC[C@H](O)CO4)cc3)cc21 (single isomer, unassigned) [INSM-201]
R = COC1CNC[C@@H](C(=O)N[C@H](C#N)Cc2ccc(-c3ccc4oc(=O)n(C)c4c3)cc2)OC1 (mixture of isomers) [INSM-202]
input: // sort listed items: pIC50 descending Form field (ranking): labels in requested order.
output: P, R, Q
(P: 9.22, R: 8.99, Q: 8.69)
